Give measured Activity (%) 30 mg/kg SSV po for each item. Keep answers brief.
# Test system: ANKA strain of P. berghei
# method description: Single dose in vivo screen in P. berghei-infected NMRI mice
# recorded conditions: single 30 mg/kg po dose in SSV one day post-infection; percent reduction in parasitemia on day three post-infection

**Q:** Please report the measured Activity (%) 30 mg/kg SSV po for CO[C@H]1O[C@@H]2O[C@@]3(C)CC[C@H]4[C@H](C)CC[C@@H]([C@H]1C)[C@@]24OO3 [AM, artemether, reference compound]
**A:** 99.7%

**Q:** Please report the measured Activity (%) 30 mg/kg SSV po for CC(C)(N)CNC(=O)C[C@H]1CC[C@]2(CC1)OO[C@]1(O2)C2CC3CC(C2)CC1C3 [OZ277, reference compound]
**A:** 99.7%

**Q:** Please report the measured Activity (%) 30 mg/kg SSV po for CC(C)(N)CCOc1ccc(C2CCC3(CC2)OOC2(O3)C3CC4CC(C3)CC2C4)cc1.Cc1ccc(S(=O)(=O)O)cc1 (centres unmarked)
**A:** 99.7%

**Q:** Please report the measured Activity (%) 30 mg/kg SSV po for OC(c1cc(C(F)(F)F)nc2c(C(F)(F)F)cccc12)C1CCCCN1 (centres unmarked) [MQ, mefloquine, reference compound]
**A:** 99.6%

**Q:** Please report the measured Activity (%) 30 mg/kg SSV po for C[C@H]1[C@H](OC(=O)CCC(=O)O)O[C@@H]2O[C@@]3(C)CC[C@H]4[C@H](C)CC[C@@H]1[C@@]24OO3 [AS, artesunate, reference compound]
**A:** 92%
